experiment: protein stability index of a GFP-peptide fusion (yeast GPS) (PSI 1-4); higher = more stable; sorted into four equal gates, so the index is relative within each strain; settings: san1∆
If the reported protein stability index equals or exceeds 3, assign Criterion met. If not, assign Criterion not met.

RPLPQWIRLRTNNTIRY [RPL39]    Criterion not met
DPRNLVNQTGSTKKDTV [YCG1]    Criterion not met
HVKIRATGGTRTKTPGP [RPS14B]    Criterion not met
QSEHLEAVVDQDVQRTC [FAS1]    Criterion met
SSLIKAGLDKGISINNM [RPO31]    Criterion not met

Data request: Quick check, protein stability index >= 3? PQAILAKNSIIDSSNLP [SWI1]
Data returned: Criterion not met

Data request: Quick check, protein stability index >= 3? RYSRQFINNVLSNPSNQ [GRR1]
Data returned: Criterion not met

Data request: Quick check, protein stability index >= 3? ISLSVHTLALEFVNGGK [RRP46]
Data returned: Criterion not met

Data request: Quick check, protein stability index >= 3? VKWVHMIIDEGHRMKNA [SNF2]
Data returned: Criterion not met

Data request: Quick check, protein stability index >= 3? IKVWTIKGQCLATLLGH [ASC1]
Data returned: Criterion not met

Data request: Quick check, protein stability index >= 3? LIIVTRKNYMHVKNFGF [YML031W/NDC1]
Data returned: Criterion not met

Data request: Quick check, protein stability index >= 3? KEGASTNWDDHAIIIFG [YMR153W/NUP53]
Data returned: Criterion met

Data request: Quick check, protein stability index >= 3? NNSLSYHSGRLLIQGPK [ITC1]
Data returned: Criterion not met

Data request: Quick check, protein stability index >= 3? HFFKWIEFIVYHQLLSD [SRB8]
Data returned: Criterion not met

Data request: Quick check, protein stability index >= 3? VNLSEVMTVPGIDPTRI [RPO21]
Data returned: Criterion met

Data request: Quick check, protein stability index >= 3? TSTKPSFSFGAPESMKS [YOR098C/NUP1]
Data returned: Criterion met

Reference source: the supplement of paper PMC9732359
